Values compiled from patent US20110135636A1.

Molecular target: T1, recombinant human EGFR extracellular domain with 6xHis (human, UniProt P00533 25-645)
T1 construct: In-house produced; also called 6xHis EGFR ECD; soluble human EGFR ECD; not shown: 6xHis tag
Assay: SPR competition, competitor 1257
PROPERTY NAME: % inhibition

Entry under test: antibody 1347 (antibody, human IgG1, kappa, V domains shown, Chimeric IgG1 kappa) VH: QVQLKESGPGLVAPSQSLSITCTVSGFSLTGHGVNWVRQPPGKGLEWLGMIWGDGSTDYNSTLKSRLSISKDNSKSQVFLKMNSLQTDDTARYYCARGYGYLYYFDYWGQGTTLTVSS VL: ENVLTQSPAIMSASPGEKVTMTCRASSSVSSSYLHWYQQKSGASPKLWIYSTSNLASGVPARFSGSGSGTSYSLTVNSVETEDAATYYCHQYSGFPFTFGSGTKLELKR . Its % inhibition was 19%

Entry under test: antibody 1320 (antibody, human IgG1, kappa, V domains shown, Chimeric IgG1 kappa) VH: QVQLQQPGAELVKPGASMKLSCKASGYTFTNYWMHWVKQRPGQGLEWIGEINPSNGRTNYNEKFKSKATLTVDKSSSTAYMQLSSLTSEDSGVYYCAKGGNYYDYDWDYWGQGTTLTVSS VL: DIQMTQTTSSLSASLGDRVTISCSASQDISNYLNWYQQKPDGTVKLLIYHTSTLHSGVPSRFSGSGSGTDYSLTISNLEPEDIATYYCQQYSKLPWTFGGGTKLEIKR . Its % inhibition was 2%
